target: Beta-lactamase OXA-1 (Escherichia coli); test: Compound was tested for the inhibitory activity against Escherichia coli OXA-1 serine beta-lactamase
Would you mind telling me the reported ID50 of each entry?

Here are 6 compounds together with their reported answers.
O=C(O)CCNP(=O)(O)CNC(=O)OCc1ccccc1 ... 14 µM
O=C(O)CNP(=O)(O)CNC(=O)OCc1ccccc1 ... 30 µM
O=C(O)CC(NP(=O)(O)CNC(=O)OCc1ccccc1)c1ccccc1 (configuration not stated) ... 46 µM
O=C(NCP(=O)(O)N[C@@H](Cc1ccccc1)C(=O)O)OCc1ccccc1 ... 60 µM
O=C(NCP(=O)(O)N[C@@H](C(=O)O)c1ccccc1)OCc1ccccc1 ... > 100 µM
O=C(O)[C@H]1/C(=C/CO)O[C@@H]2CC(=O)N21 [CLAVULANIC ACID] ... 3.4 µM

Turning now to a further record.
Would you kindly share the measured ID50 for O=C(NCP(=O)(O)N[C@H](Cc1ccccc1)C(=O)O)OCc1ccccc1 ?
> 100 µM

====

So I've got a bunch of molecules here, and I need their ID50 values.
target: Beta-lactamase TEM (Escherichia coli) (UniProt P62593); experiment: Inhibitory activity against Escherichia coli TEM-1 serine beta-lactamase
Sequence (P62593 whole entry): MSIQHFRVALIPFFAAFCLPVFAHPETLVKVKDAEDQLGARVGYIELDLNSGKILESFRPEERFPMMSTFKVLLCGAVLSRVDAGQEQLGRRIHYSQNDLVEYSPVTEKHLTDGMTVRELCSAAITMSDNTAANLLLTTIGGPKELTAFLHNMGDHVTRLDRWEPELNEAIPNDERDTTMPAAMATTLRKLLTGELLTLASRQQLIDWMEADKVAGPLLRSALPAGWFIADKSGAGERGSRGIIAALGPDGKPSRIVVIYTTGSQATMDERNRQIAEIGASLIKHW

Example results:
COP(=O)(CNC(=O)OCc1ccccc1)N1CCC[C@H]1C(=O)O (stereo partly specified) ... > 100 µM
O=C(NCP(=O)(O)N[C@@H](Cc1ccccc1)C(=O)O)OCc1ccccc1 ... > 50 µM
O=C(O)CCNP(=O)(O)CNC(=O)OCc1ccccc1 ... > 50 µM
O=C(O)CC(NP(=O)(O)CNC(=O)OCc1ccccc1)c1ccccc1 (stereo unspecified) ... > 50 µM

Give measured ID50 for every item shown.
1. COP(=O)(CNC(=O)OCc1ccccc1)N1CSC(C)(C)[C@@H]1C(=O)O (stereo partly specified)
2. O=C(NCP(=O)(O)N[C@@H](C(=O)O)c1ccccc1)OCc1ccccc1
3. O=C(O)[C@H]1/C(=C/CO)O[C@@H]2CC(=O)N21
4. COP(=O)(CNC(=O)OCc1ccccc1)N1CCC[C@@H]1C(=O)O (stereo partly specified)

["> 100 µM", "> 100 µM", "0.315 µM", "> 100 µM"]

Batch of 2 molecules: report ID50 for each.
1. O=C(NCP(=O)(O)N[C@H](Cc1ccccc1)C(=O)O)OCc1ccccc1
2. O=C(O)CNCP(=O)(O)CNC(=O)OCc1ccccc1

1. > 100 µM
2. > 100 µM

Name the recorded ID50 for O=C(O)CNP(=O)(O)CNC(=O)OCc1ccccc1 .
> 100 µg/mL

====

biological target: Beta-lactamase PSE-4 (Pseudomonas aeruginosa) (UniProt P16897); assay: Compound was tested for the inhibitory activity against Pseudomonas aeruginosa PSE-4 serine beta-lactamase
Sequence (P16897 whole entry): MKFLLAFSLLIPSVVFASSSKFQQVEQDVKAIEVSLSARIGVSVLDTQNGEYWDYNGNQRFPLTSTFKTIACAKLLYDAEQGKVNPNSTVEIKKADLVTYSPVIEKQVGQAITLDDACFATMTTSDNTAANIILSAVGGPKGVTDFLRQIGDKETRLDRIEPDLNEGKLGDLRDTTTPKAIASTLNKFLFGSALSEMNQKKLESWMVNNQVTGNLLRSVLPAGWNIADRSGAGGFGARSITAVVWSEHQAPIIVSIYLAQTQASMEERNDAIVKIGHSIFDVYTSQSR
READOUT LABEL: ID50 (µM)
Give bare numbers, in µM.

Illustrative cases are given below, each with its answer.
O=C(O)[C@H]1/C(=C/CO)O[C@@H]2CC(=O)N21 ... 0.235
O=C(NCP(=O)(O)N[C@@H](Cc1ccccc1)C(=O)O)OCc1ccccc1 ... 15

For the next question, use this compound.
Suppose we examine the compound O=C(O)CC(NP(=O)(O)CNC(=O)OCc1ccccc1)c1ccccc1 (configuration not stated) ; what ID50 value has been reported?
83

====

biological target: Beta-lactamase (Enterobacter cloacae) (UniProt P05364); assay: Minimum inhibitory concentration of 10 ug/ml compound in combination with amoxycillin against Enterobacter cloacae N-1 organism; assay type: functional
Sequence (P05364 21-381 limits assumed): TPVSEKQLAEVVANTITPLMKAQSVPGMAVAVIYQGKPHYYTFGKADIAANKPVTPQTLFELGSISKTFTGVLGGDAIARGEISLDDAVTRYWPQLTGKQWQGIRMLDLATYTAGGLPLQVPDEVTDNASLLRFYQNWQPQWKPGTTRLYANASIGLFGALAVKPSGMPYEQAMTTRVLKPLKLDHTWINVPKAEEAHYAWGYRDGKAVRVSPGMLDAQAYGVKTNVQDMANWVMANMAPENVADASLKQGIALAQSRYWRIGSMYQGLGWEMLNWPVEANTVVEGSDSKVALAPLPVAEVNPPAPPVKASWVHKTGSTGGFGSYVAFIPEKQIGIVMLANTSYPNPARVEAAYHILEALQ
READOUT LABEL: MIC (µg/mL)
Numbers only, in µg/mL.

CC1(C)S[C@@H]2[C@H](NC(=O)C(N)c3ccc(O)cc3)C(=O)N2[C@H]1C(=O)O.O=C(O)CC(NP(=O)(O)CNC(=O)OCc1ccccc1)c1ccccc1 (stereo not given) ... 16
CC1(C)S[C@@H]2[C@H](NC(=O)C(N)c3ccc(O)cc3)C(=O)N2[C@H]1C(=O)O.O=C(O)CCNP(=O)(O)CNC(=O)OCc1ccccc1 (stereo not given in full) ... 44
CC1(C)S[C@@H]2[C@H](NC(=O)C(N)c3ccc(O)cc3)C(=O)N2[C@H]1C(=O)O.O=C(NCP(=O)(O)N[C@@H](Cc1ccccc1)C(=O)O)OCc1ccccc1 ... 128

Provide the reported MIC of each entry below, same order.
1. CC1(C)S[C@@H]2[C@H](NC(=O)C(N)c3ccc(O)cc3)C(=O)N2[C@H]1C(=O)O.O=C(NCP(=O)(O)NC(C(=O)O)c1ccccc1)OCc1ccccc1 (stereo not given)
2. CC1(C)S[C@@H]2[C@H](NC(=O)C(N)c3ccc(O)cc3)C(=O)N2[C@H]1C(=O)O.O=C(NCP(=O)(O)N[C@H](Cc1ccccc1)C(=O)O)OCc1ccccc1

[32, 128]
